target: GlcNAc(b1-3)Gal(b1-4)GlcNAc; assay: glycan array binding signal (z-score within array); higher = stronger binding; settings: glycan notation: IUPAC condensed, linker removed
This is one part of a sample in which the strongest signals are shown more often than they occur.
Measured endpoint: glycan array binding signal (z-score)
Form rule: numeric answer, no unit written next to it.

I'd like to know its glycan array binding signal (z-score). The binder in question is CC1G-11630 (Coprinopsis cinerea), A8P462 (protein) MTTEAKIKLKAVVYWELVFDYDNSSNTGEITQSYTVKISQTSTRSTFASEVSTTTIDTLTKNNQEVDVGASYGAISANVSASWEHSEEVNNMLEKTTQTSTEDTYTVETEETRSYTIGPGGMLSLFQKHFSGPGMHVAFDVFTTDLELAKERTEIDIDVDVEAIRFVREIRVVYTDIMSEAPGDHVREINGKNPDINYGFNGKFVWLVPEQTRKTAQALTNVEFVSQAESDDRYWDLAAGAGGSNRYLIPVYDTNNKDKIYELALWRSDSYITHDKVKAAGWSGTTGDINSGRGGTYLNLVWKTRHAY -0.538
